target: IDH1 R132H enzyme (Homo sapiens (Human), UniProt O75874, R132H); assay: Mutant IDH1 R132H biochemical assay; settings: NADPH consumption, luminescent readout; 1.5 nM enzyme, 1 μM NADPH, 250 μM α-KG, 30 minutes, 32° C.
Sequence (O75874 whole entry R132H): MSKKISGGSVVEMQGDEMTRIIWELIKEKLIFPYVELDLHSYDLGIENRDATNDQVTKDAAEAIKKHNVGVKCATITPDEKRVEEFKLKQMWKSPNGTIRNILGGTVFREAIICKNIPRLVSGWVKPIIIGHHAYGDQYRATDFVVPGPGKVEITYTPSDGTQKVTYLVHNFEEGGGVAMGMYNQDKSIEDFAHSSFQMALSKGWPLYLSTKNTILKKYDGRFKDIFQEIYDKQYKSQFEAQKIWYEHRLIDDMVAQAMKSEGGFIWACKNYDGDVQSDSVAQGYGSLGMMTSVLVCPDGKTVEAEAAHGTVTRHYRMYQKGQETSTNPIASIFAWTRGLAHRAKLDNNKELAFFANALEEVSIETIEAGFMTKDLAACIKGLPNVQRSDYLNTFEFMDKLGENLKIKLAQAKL
Would you mind telling me the reported IC50 of each entry?
Give bare numbers, in nM.

1) C[C@H]1C[C@@H](n2c(Nc3ccc(OC(F)(F)F)cc3)nc3cc(CCC(=O)O)ccc32)CC(C)(CO)C1 (stereo partly drawn) = 270
2) C[C@H]1C[C@@H](n2c(Nc3ccc(OC(F)(F)F)cc3)nc3cc(C(=O)O)ccc32)CC(C)(C)[C@@H]1O = 4800
3) CC1(C)C[C@@H](CO)C[C@@H](n2c(Nc3ccc(OC(F)(F)F)cc3)nc3cc(CCC(=O)O)ccc32)C1 = 180
4) C[C@H]1C[C@@H](n2c(Nc3ccc(OC(F)(F)F)cc3)nc3cc(C(=O)O)ccc32)CC(C)(CO)C1 (stereo partly drawn) = 500
5) C[C@H]1C[C@@H](n2c(Nc3ccc(OC(F)(F)F)cc3)nc3cc(CCC(=O)O)ccc32)CC(C)(C)[C@@H]1O = 4100

# next compound below
Per the record, `CC1(C)C[C@@H](n2c(Nc3ccc(OC(F)(F)F)cc3)nc3cnccc32)C[C@@](C)(CO)C1` has IC50 of 30
